- assay_remarks: in vivo
- condition_parameters: Sprague-Dawley, rat, po, 1.8 mg/kg, t1/2z of fluoxetine
metric: half-life (h)
API: value field is a number in h; no unit string.

Which half-life value is on record for CNCCC(Oc1ccc(C(F)(F)F)cc1)c1ccccc1 (stereo not shown) ?
8.95

----------
- assay_remarks: in vivo
- condition_parameters: Sprague-Dawley, rat, po, 1.8 mg/kg, MRT (0–t) of fluoxetine
metric: MRT last (h)
API: value field is a number in h; no unit string.

Which MRT last value is on record for CNCCC(Oc1ccc(C(F)(F)F)cc1)c1ccccc1 (stereo not shown) ?
7.67

----------
- assay_remarks: in vivo
- condition_parameters: Sprague-Dawley, rat, po, 1.8 mg/kg, CLz/F of fluoxetine
metric: CL/F
Please state the number and follow it with the unit.

Which CL/F value is on record for CNCCC(Oc1ccc(C(F)(F)F)cc1)c1ccccc1 (stereo not shown) ?
2490 mL/min/kg

Reference source: paper PMC6907063
